Would you kindly list EC50 GLP-1 (nM), cAMP AlphaScreen for each of these binders?
molecular target: human glucagon-like peptide 1 receptor (GLP-1R) (human, UniProt P43220); experiment: cell-based or functional assay
Numbered stars: 1 amine (or outer) side, 2 acyl side, 3 side chain; on linkers, the order of the positions; unused ones are H or OH. Square brackets hold non-standard residues; d marks the D form. Side chains are listed from the residue outwards. * marks the point of attachment. C20 diacid = O=C(O)CCCCCCCCCCCCCCCCCCC(=O)*; C18 diacid = O=C(O)CCCCCCCCCCCCCCCCC(=O)*; γGlu = O=C(O)[C@H](CCC(=O)[*:2])N[*:1]; KEK = Lys-Glu-Lys peptide sequence; AEEA = NCCOCCOCC(=O)O; Aib = CC(C)(N)C(=O)O
Numbers only, in nM.

> print(dat)
                                     binder  recorded.result
1  H-H[Aib]EGSFTSELATILDAKAAK([AEEA-KEK-γGlu-C20 diacid])DFIAWLIEHKITD-OH [Compound 68]            0.084
2  H-H[Aib]EGTFSSELATILDK([γGlu-C18 diacid])KAARDFIAWLIEHKITD-OH [Compound 4]             0.66
3  H-H[Aib]EGSFTSEK([AEEA-KEK-γGlu-C20 diacid])ATILDEQAARDFIAWLIEHKITD-OH [Compound 53]            0.076

Items follow; give EC50 GLP-1 (nM), cAMP AlphaScreen for each.
1. H-H[Aib]EGSFTSELATILEGK([AEEA-KEK-γGlu-C20 diacid])AARDFIAWLIEHKITD-OH [Compound 61]
2. H-H[Aib]EGSFTSELATILDK([AEEA-AEEA-AEEA-iso‑Lys-C20 diacid])QAARDFIAWLIQQKITD-OH [Compound 35]
3. H-H[Aib]EGTFTSELATILDK([KEK-γGlu-C20 diacid])QAARDFIAWLIQHKITD-OH [Compound 51]
4. H-H[Aib]EGSFTSEK([AEEA-AEEA-γGlu-C20 diacid])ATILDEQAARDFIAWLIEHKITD-OH [Compound 42]

[0.13, 0.099, 0.02, 0.067]

From: patent US20250073311A1
